Known viability at 24 h, 40 µM of a selection of molecules
# Test Name: CCK-8 cell viability assay
# Format: cell-based, Murine
# Measurement Context: mouse
Measurement Name: viability at 24 h, 40 µM (%)

[
  {
    "Molecule": "O=c1c(O)c(-c2ccc(O)cc2)oc2cc(O[C@@H]3O[C@H](CO)[C@@H](O)[C@H](O)[C@H]3O)cc(O)c12 [Compound 3, kaempferol-7-O-β-D-glucopyranoside]",
    "Assay Value": 91.1
  },
  {
    "Molecule": "O=c1c(O)c(-c2ccc(O)cc2)oc2cc(O)cc(O)c12",
    "Assay Value": 92.4
  },
  {
    "Molecule": "O=C1c2c(O)cc(O)cc2O[C@H](c2ccc(O)cc2)[C@H]1O [Compound 15, dihydrokaempferol]",
    "Assay Value": 91.3
  },
  {
    "Molecule": "C[C@@H]1O[C@@H](OC[C@H]2O[C@@H](Oc3c(-c4ccc(O)cc4)oc4cc(O)cc(O)c4c3=O)[C@H](O[C@@H]3O[C@H](CO)[C@@H](O)[C@H](O)[C@H]3O)[C@@H](O)[C@@H]2O)[C@H](O)[C@H](O)[C@H]1O",
    "Assay Value": 93.8
  },
  {
    "Molecule": "C[C@@H]1O[C@@H](OC[C@H]2O[C@@H](O[C@H]3[C@H](Oc4c(-c5ccc(O)cc5)oc5cc(O)cc(O)c5c4=O)O[C@H](CO)[C@@H](O)[C@@H]3O)[C@H](O)[C@@H](O)[C@@H]2O)[C@H](O)[C@H](O)[C@H]1O",
    "Assay Value": 90.7
  },
  {
    "Molecule": "O=c1c(O[C@@H]2O[C@H](CO)[C@@H](O)[C@H](O)[C@H]2O)c(-c2ccc(O)cc2)oc2cc(O[C@@H]3O[C@H](CO)[C@@H](O)[C@H](O)[C@H]3O)cc(O)c12 [Compound 4, kaempferol-3,7-di-O-β-D-glucopyranoside]",
    "Assay Value": 93.4
  }
]

----------
# Test system: RAW 264.7 macrophages
# Test Name: CCK-8 cell viability assay
# Type: cell-based, Murine
# Measurement Context: 40 μM, 24 h, RAW 264.7 macrophages, mean ± SD, n = 3
Known Cell viability (%) of a selection of compounds

[
  {
    "Compound": "O=c1c(O[C@@H]2O[C@H](CO)[C@@H](O)[C@H](O)[C@H]2O[C@@H]2O[C@H](CO)[C@@H](O)[C@H](O)[C@H]2O)c(-c2ccc(O)cc2)oc2cc(O[C@@H]3O[C@H](CO)[C@@H](O)[C@H](O)[C@H]3O)cc(O)c12",
    "Cell viability (%)": 94.03
  },
  {
    "Compound": "COc1cc(O)c2c(=O)c(O[C@@H]3O[C@H](CO)[C@@H](O)[C@H](O)[C@H]3O[C@@H]3O[C@H](CO)[C@@H](O)[C@H](O)[C@H]3O)c(-c3ccc(O)cc3)oc2c1",
    "Cell viability (%)": 96.89
  },
  {
    "Compound": "C[C@@H]1O[C@@H](OC[C@H]2O[C@@H](Oc3c(-c4ccc(O)cc4)oc4cc(O[C@@H]5O[C@H](CO)[C@@H](O)[C@H](O)[C@H]5O)cc(O)c4c3=O)[C@H](O)[C@@H](O)[C@@H]2O)[C@H](O)[C@H](O)[C@H]1O",
    "Cell viability (%)": 95.48
  },
  {
    "Compound": "O=c1c(O[C@@H]2O[C@H](CO)[C@@H](O)[C@H](O)[C@H]2O[C@@H]2O[C@H](CO)[C@@H](O)[C@H](O)[C@H]2O)c(-c2ccc(O)cc2)oc2cc(O)cc(O)c12 [Compound 5, kaempferol-3-O-sophoroside]",
    "Cell viability (%)": 93.48
  },
  {
    "Compound": "OC[C@H]1O[C@@H](OCCc2ccccc2)[C@H](O)[C@@H](O)[C@@H]1O [Compound 17, phenethyl-O-β-D-glucopyranoside]",
    "Cell viability (%)": 92.21
  },
  {
    "Compound": "OC[C@H]1O[C@@H](OC[C@H]2O[C@@H](OCCc3ccccc3)[C@H](O)[C@@H](O)[C@@H]2O)[C@H](O)[C@@H](O)[C@@H]1O [Compound 18, phenethanol-β-gentiobioside]",
    "Cell viability (%)": 92.51
  },
  {
    "Compound": "C[C@@H]1O[C@@H](OC[C@H]2O[C@@H](OCCc3ccccc3)[C@H](O)[C@@H](O)[C@@H]2O)[C@H](O)[C@H](O)[C@H]1O [Compound 19, phenethyl-O-rutinoside]",
    "Cell viability (%)": 92.30
  }
]

All figures here come from paper PMC8895762.
